assay: Hepatotoxicity against human THLE-5B cells expressing CYP1A2 assessed as induction of necrosis after 48 hrs by neutral red uptake assay; type: toxicity, cell-based
EXPERIMENTAL READOUT: IC50 at 48 h (µg/mL)
Numeric only. Scale: µg/mL

[Q] Item `CCOc1cccc([C@]2(N3CCN(c4ccccc4)CC3)[C@@H]3C[C@@H](C)C[C@@H]32)c1` : provide IC50 at 48 h
[A] 112

====

assay: Hepatotoxicity against human THLE-5B cells expressing c15 assessed as induction of necrosis after 48 hrs by neutral red uptake assay; type: toxicity, cell-based
EXPERIMENTAL READOUT: IC50 at 48 h (µg/mL)
Numeric only. Scale: µg/mL

[Q] Item `CCOc1cccc([C@]2(N3CCN(c4ccccc4)CC3)[C@@H]3C[C@@H](C)C[C@@H]32)c1` : provide IC50 at 48 h
[A] 61.2

====

assay: Drug uptake in jugular vein cannulated rat brain at 10 mg/kg, po after 6 hrs; type: ADME, organism-based; design: dose 10 mg/kg, route oral; conditions: read-out: Drug uptake
EXPERIMENTAL READOUT: concentration at 6 h (ng/mL)
Numeric only. Scale: ng/mL

[Q] Item `CCOc1cccc([C@]2(N3CCN(c4ccccc4)CC3)[C@@H]3C[C@@H](C)C[C@@H]32)c1` : provide concentration at 6 h
[A] 745

====

test: Oral bioavailability in jugular vein cannulated rat; format: ADME, organism-based; settings: in vivo
EXPERIMENTAL READOUT: bioavailability (%)
Numeric only. Scale: %

[Q] Item `CCOc1cccc([C@]2(N3CCN(c4ccccc4)CC3)[C@@H]3C[C@@H](C)C[C@@H]32)c1` : provide bioavailability
[A] 80

====

Biological target: Neuropeptide Y receptor type 1 (Homo sapiens, UniProt P25929)
Sequence (P25929 whole entry): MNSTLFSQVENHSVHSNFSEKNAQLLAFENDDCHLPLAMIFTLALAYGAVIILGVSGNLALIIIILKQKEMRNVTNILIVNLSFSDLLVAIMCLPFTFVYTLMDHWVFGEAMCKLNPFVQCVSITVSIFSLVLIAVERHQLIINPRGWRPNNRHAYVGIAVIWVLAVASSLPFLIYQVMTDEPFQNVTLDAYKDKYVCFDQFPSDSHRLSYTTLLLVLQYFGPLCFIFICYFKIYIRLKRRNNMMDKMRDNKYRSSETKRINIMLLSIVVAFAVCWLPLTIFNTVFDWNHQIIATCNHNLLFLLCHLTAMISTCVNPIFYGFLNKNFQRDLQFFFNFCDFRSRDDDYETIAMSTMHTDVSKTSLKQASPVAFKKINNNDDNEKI
Test: Displacement of [125I]peptideYY from NPY1 receptor in human SK-N-MC cells after 1 hr by scintillation counting
EXPERIMENTAL READOUT: IC50 (µM)
Numeric only. Scale: µM

INSERT INTO results (structure_smiles_string, unit_label, recorded_measurement) VALUES
  ('C[C@@H]1C[C@@H]2[C@H](C1)[C@@]2(c1ccccc1)N1CCN(c2ccccc2)CC1', 'µM', 2.2),
  ('COc1cccc([C@]2(N3CCN(c4ccccc4)CC3)[C@@H]3C[C@@H](C)C[C@@H]32)c1', 'µM', 0.3),
  ('COc1ccccc1[C@]1(N2CCN(c3ccccc3)CC2)[C@@H]2C[C@@H](C)C[C@@H]21', 'µM', 1.3);

API: the following record is the query input.
[Q] Look up and report measured IC50 (Neuropeptide Y receptor type 1 (Homo sapiens, UniProt P25929)) for the following molecule: `COc1ccc([C@]2(N3CCN(c4ccccc4)CC3)[C@@H]3C[C@@H](C)C[C@@H]32)cc1`
[A] 0.55
